log10(IC50), Phosphodiesterase 4 (Homo sapiens, UniProt P27815+Q08499+Q07343+Q08493), per-entry values.
The common logarithm of IC50 in nM is what is listed.

COc1ccc2c(Cc3c(Cl)cncc3Cl)nnc(N3CCCC3)c2c1    1.58

State the recorded log10(IC50) for every item in the following list.
1. C#Cc1nnc(Cc2c(Cl)cncc2Cl)c2ccc(OC)cc12
2. COc1ccc2c(Cc3c(Cl)cncc3Cl)nnc(-c3ccccc3)c2c1
3. COc1ccc2c(Cc3c(Cl)c[n+]([O-])cc3Cl)nnc(-c3nccs3)c2c1

// result
[1.97, 1.57, 0.60]

State the recorded log10(IC50) for every item in the following list.
1. COc1ccc2c(Cc3c(Cl)cncc3Cl)nnc(-c3nccs3)c2c1
2. COc1ccc2c(Cc3c(Cl)cncc3Cl)nnc(C#Cc3ccccc3)c2c1

// result
1.15
1.68
